- assayed-system: HLA-A*02:01 (Homo sapiens, UniProt P04439, D140Y/D185E/D98H/E176V/E277Q/G131W/G231S/I119V/I121R/I166T/I218V/L300P/L318F/N151K/N90K/P208A/P217A/Q86G/Q94H/R138H/R169H/T345S)
- test-summary: MHC binding assay (UV-ligand exchange, β2m ELISA, peptide exchange yield)
- measurement-parameters: MHC class I binding score; binding to HLA-A*02:01 ranged by peptide exchange yield (UV-ligand exchange, β2m ELISA)
readout: Peptide exchange

Examples with answers:
substance="27 (ILADIVISA; listed as Homo sapiens) [compound 27]" endpoint_value="“+++” (≧50 = +++)"
substance="266 (KITDTLIHL; listed as Homo sapiens) [compound 266]" endpoint_value="“+++” (≧50 = +++)"
substance="447 (QLVPALAKV; listed as Homo sapiens) [compound 447]" endpoint_value="“++” (≧20% = ++)"
substance="352 (SLLELLHIYV; listed as Homo sapiens) [compound 352]" endpoint_value="“+++” (≧50 = +++)"
substance="273 (NLFQSVREV; listed as Homo sapiens) [compound 273]" endpoint_value="“++” (≧20% = ++)"
substance="167 (KVLEVTEEFGV; listed as Homo sapiens) [compound 167]" endpoint_value="“+++” (≧50 = +++)"

Here's the next entry for you.
Reported Peptide exchange for 489 (KMWEELPEVV; listed as Homo sapiens) [compound 489] was “+++” (≧50 = +++)

====

- assayed-system: HLA-A*02:01 (Homo sapiens, UniProt P04439, D140Y/D185E/D98H/E176V/E277Q/G131W/G231S/I119V/I121R/I166T/I218V/L300P/L318F/N151K/N90K/P208A/P217A/Q86G/Q94H/R138H/R169H/T345S)
- test-summary: MHC binding assay (UV-ligand exchange, β2m ELISA, peptide exchange yield)
- measurement-parameters: MHC class I binding score; binding to HLA-A*02:01 ranged by peptide exchange yield (UV-ligand exchange, β2m ELISA)
readout: Peptide exchange

substance="588 (SLLPLSHLV; listed as Homo sapiens) [compound 588]" endpoint_value="“+++” (≧50 = +++)"
substance="592 (RLLSAAENFL; listed as Homo sapiens) [compound 592]" endpoint_value="“+++” (≧50 = +++)"
substance="297 (VLADIELAQA; listed as Homo sapiens) [compound 297]" endpoint_value="“+++” (≧50 = +++)"

====

- assayed-system: HLA-A*02:01 (Homo sapiens, UniProt P04439, D140Y/D185E/D98H/E176V/E277Q/G131W/G231S/I119V/I121R/I166T/I218V/L300P/L318F/N151K/N90K/P208A/P217A/Q86G/Q94H/R138H/R169H/T345S)
- test-summary: MHC binding assay (UV-ligand exchange, β2m ELISA, peptide exchange yield)
- measurement-parameters: MHC class I binding score; binding to HLA-A*02:01 ranged by peptide exchange yield (UV-ligand exchange, β2m ELISA)
readout: Peptide exchange

Examples with answers:
substance="114 (SLVGEPILQNV; listed as Homo sapiens) [compound 114]" readout="Peptide exchange" endpoint_value="“++” (≧20% = ++)"
substance="569 (KLVDRTWTL; listed as Homo sapiens) [compound 569]" readout="Peptide exchange" endpoint_value="“+++” (≧50 = +++)"
substance="252 (LLIGTDVSL; listed as Homo sapiens) [compound 252]" readout="Peptide exchange" endpoint_value="“+++” (≧50 = +++)"
substance="463 (SLVESHLSDQLTL; listed as Homo sapiens) [compound 463]" readout="Peptide exchange" endpoint_value="“+++” (≧50 = +++)"
substance="451 (LLLLDTVTMQV; listed as Homo sapiens) [compound 451]" readout="Peptide exchange" endpoint_value="“++” (≧20% = ++)"
substance="189 (ALQRKLPYV; listed as Homo sapiens) [compound 189]" readout="Peptide exchange" endpoint_value="“+++” (≧50 = +++)"
substance="144 (YIMEPSIFNTL; listed as Homo sapiens) [compound 144]" readout="Peptide exchange" endpoint_value="“+++” (≧50 = +++)"
substance="340 (ALLSMTFPL; listed as Homo sapiens) [compound 340]" readout="Peptide exchange" endpoint_value="“++++” (≧75% = ++++)"

Reported Peptide exchange for 170 (RLQETLSAA; listed as Homo sapiens) [compound 170] was “+++” (≧50 = +++)

Reported Peptide exchange for 461 (VMFRTPLASV; listed as Homo sapiens) [compound 461] was “++” (≧20% = ++)

Reported Peptide exchange for 617 (ALMYESEKVGV; listed as Homo sapiens) [compound 617] was “+++” (≧50 = +++)

Reported Peptide exchange for 314 (ALIAEGIALV; listed as Homo sapiens) [compound 314] was “+++” (≧50 = +++)

Reported Peptide exchange for 494 (ALQPEPIKV; listed as Homo sapiens) [compound 494] was “++” (≧20% = ++)

Reported Peptide exchange for 226 (MLYVVPIYL; listed as Homo sapiens) [compound 226] was “++” (≧20% = ++)

Reported Peptide exchange for 356 (KLLGKLPEL; listed as Homo sapiens) [compound 356] was “+++” (≧50 = +++)

Reported Peptide exchange for 484 (SLIEKVTQL; listed as Homo sapiens) [compound 484] was “+++” (≧50 = +++)

Reported Peptide exchange for 182 (MLLEAPGIFL; listed as Homo sapiens) [compound 182] was “+++” (≧50 = +++)

Reported Peptide exchange for 412 (YLDDLNEGVYI; listed as Homo sapiens) [compound 412] was “++” (≧20% = ++)

Reported Peptide exchange for 104 (STMEQNFLL; listed as Homo sapiens) [compound 104] was “++++” (≧75% = ++++)

Reported Peptide exchange for 615 (VLPPDTDPA; listed as Homo sapiens) [compound 615] was “++” (≧20% = ++)

Reported Peptide exchange for 337 (HLLSELEAAPYL; listed as Homo sapiens) [compound 337] was “++++” (≧75% = ++++)

Reported Peptide exchange for 455 (SLLKEPQKVQL; listed as Homo sapiens) [compound 455] was “++” (≧20% = ++)

Reported Peptide exchange for 131 (FVPPVTVFPSL; listed as Homo sapiens) [compound 131] was “++” (≧20% = ++)

Reported Peptide exchange for 255 (VLASYNLTV; listed as Homo sapiens) [compound 255] was “+++” (≧50 = +++)

Reported Peptide exchange for 263 (LLVSNLDFGV; listed as Homo sapiens) [compound 263] was “+++” (≧50 = +++)

Reported Peptide exchange for 568 (TLYDIAHTPGV; listed as Homo sapiens) [compound 568] was “++++” (≧75% = ++++)

Reported Peptide exchange for 319 (SLEPQIQPV; listed as Homo sapiens) [compound 319] was “++” (≧20% = ++)

Reported Peptide exchange for 514 (ILVDWLVQV; listed as Homo sapiens) [compound 514] was “+++” (≧50 = +++)

Reported Peptide exchange for 298 (VMITKLVEV; listed as Homo sapiens) [compound 298] was “+++” (≧50 = +++)

Reported Peptide exchange for 22 (IMEENPGIFAV; listed as Homo sapiens) [compound 22] was “+++” (≧50 = +++)

Reported Peptide exchange for 559 (VTVPPGPSL; listed as Homo sapiens) [compound 559] was “++” (≧20% = ++)

Reported Peptide exchange for 518 (KLNAEVACV; listed as Homo sapiens) [compound 518] was “+++” (≧50 = +++)
